Where these numbers come from: PubChem BioAssay (NCI)

Test: NCI Yeast Anticancer Drug Screen. Data for the mec2-1 strain (AID 157)
Settings: S. cerevisiae mec2-1 strain, at 50.0 µM, stronger effect = higher value
Experimental: Growth inhibition of yeast strains with defined genetic alterations is measured as a screen for potential anti-cancer activity. Selected strains with alterations in DNA damage repair or cell cycle control were exposed to compounds and growth inhibition was measured relative to vehicle treated controls. The strain used in this assay is mec2-1
Compounds without any hit were thinned out: in the full panel of roughly 79,000, 15% have a hit.
Kindly return True if reported growth inhibition is no lower than 10%; return False if it is lower.

The following compounds have reported results that may help.
1. C/C(=N\N=C(N)N)c1sc(-c2nc(C)c(/C(C)=N/N=C(N)N)s2)nc1C	False
2. Cc1cc(N=C2C=C(Nc3cc(C)on3)C(=O)c3ccccc32)no1	False
3. CCN(CC)CCNc1ccc2ncn3c4c(OC)ccc(OC)c4c(=O)c1c23	False
4. O=C1OC(c2ccc(Cl)cc2)=N/C1=C\c1ccc(Cl)c(Cl)c1	True
5. NC(=O)COc1ccccc1	False

Alright, here's another compound for you.
Q. For this compound, is measured growth inhibition 10% or higher? O=C(Oc1ccc([N+](=O)[O-])cc1)C(CSC(c1ccccc1)(c1ccccc1)c1ccccc1)NC(c1ccccc1)(c1ccccc1)c1ccccc1 (stereo unspecified)
A. True
